Biological target: human Nav1.7 (Homo sapiens, UniProt Q15858)
Construct: expressed in transfected cells; host or cells: HEK293
Sequence (Q15858 whole entry): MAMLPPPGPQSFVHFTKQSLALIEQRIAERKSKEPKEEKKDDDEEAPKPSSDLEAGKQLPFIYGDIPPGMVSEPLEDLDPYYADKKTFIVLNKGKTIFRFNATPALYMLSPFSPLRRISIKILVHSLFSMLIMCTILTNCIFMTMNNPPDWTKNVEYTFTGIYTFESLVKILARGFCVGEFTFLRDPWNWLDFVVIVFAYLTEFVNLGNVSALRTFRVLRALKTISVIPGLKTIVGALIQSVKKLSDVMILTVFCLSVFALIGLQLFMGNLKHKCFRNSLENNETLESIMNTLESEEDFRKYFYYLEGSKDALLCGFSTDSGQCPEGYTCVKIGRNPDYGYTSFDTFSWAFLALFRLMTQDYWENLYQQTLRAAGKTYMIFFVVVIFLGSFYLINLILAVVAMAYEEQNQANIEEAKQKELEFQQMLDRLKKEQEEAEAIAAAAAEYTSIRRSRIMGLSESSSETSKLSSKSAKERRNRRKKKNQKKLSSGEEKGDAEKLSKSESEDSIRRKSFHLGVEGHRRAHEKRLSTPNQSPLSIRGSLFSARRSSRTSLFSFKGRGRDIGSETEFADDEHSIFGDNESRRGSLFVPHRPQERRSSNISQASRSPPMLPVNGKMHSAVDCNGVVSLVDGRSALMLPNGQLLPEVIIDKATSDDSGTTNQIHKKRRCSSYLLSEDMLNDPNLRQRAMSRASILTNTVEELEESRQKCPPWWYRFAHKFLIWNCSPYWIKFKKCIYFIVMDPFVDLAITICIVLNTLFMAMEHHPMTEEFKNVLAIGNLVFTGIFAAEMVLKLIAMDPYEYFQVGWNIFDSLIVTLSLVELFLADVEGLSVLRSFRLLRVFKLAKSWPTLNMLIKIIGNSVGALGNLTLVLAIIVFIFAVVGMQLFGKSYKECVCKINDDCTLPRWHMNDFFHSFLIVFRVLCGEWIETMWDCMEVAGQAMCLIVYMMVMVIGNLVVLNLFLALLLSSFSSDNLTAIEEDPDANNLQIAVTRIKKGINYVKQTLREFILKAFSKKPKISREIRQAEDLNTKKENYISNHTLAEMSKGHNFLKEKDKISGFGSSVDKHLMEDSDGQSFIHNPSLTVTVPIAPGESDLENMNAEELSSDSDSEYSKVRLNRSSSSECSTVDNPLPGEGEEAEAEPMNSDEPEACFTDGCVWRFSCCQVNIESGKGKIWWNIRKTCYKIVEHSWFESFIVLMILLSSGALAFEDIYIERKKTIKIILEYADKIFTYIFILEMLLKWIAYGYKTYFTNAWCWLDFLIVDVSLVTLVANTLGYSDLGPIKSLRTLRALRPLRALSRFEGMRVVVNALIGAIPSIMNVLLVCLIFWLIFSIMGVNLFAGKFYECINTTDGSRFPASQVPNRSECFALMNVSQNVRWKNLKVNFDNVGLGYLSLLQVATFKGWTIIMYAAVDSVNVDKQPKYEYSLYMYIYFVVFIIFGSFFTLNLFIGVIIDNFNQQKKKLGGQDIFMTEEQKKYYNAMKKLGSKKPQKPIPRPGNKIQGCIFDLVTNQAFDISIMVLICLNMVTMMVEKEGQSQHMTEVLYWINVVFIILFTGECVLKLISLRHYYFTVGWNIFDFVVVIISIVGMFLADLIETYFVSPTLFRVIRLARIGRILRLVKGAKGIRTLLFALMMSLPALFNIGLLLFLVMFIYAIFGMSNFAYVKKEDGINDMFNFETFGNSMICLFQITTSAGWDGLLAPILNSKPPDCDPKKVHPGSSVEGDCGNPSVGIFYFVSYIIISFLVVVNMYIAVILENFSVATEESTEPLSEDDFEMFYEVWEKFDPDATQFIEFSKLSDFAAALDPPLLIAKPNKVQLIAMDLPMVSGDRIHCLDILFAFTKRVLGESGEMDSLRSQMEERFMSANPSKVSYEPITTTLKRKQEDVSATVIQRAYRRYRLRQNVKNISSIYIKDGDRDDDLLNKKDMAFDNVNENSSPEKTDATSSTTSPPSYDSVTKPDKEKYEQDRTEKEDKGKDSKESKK
Assay: Nav 1.7 IWB In Vitro Assay (IonWorks Barracuda)
Assay type: cell-based
Settings: HEK293 cells stably transfected with human Nav 1.7; IonWorks Barracuda population patch-clamp; cells clamped to −20 mV for 4 minutes with compound; 26th pulse; read-out: hNav1.7 IWB IC50
pIC50: −log10 of the molar value.
MEASURED_PARAMETER: pIC50

Field: example entries. Status: answers known.
MOLECULE | TARGET_DESC | pIC50
COc1cc(-c2cccc(OC(F)(F)F)c2)c(F)cc1-n1c2c(ccc1=O)CN(S(=O)(=O)Nc1cccnn1)CC2 | human Nav1.7 (Homo sapiens, UniProt Q15858) | 8.42
COc1cc(-c2ccc(F)c(C)c2)c(F)cc1-n1c2c(ccc1=O)CN(S(=O)(=O)Nc1ncccn1)CC2 (racemic) [Example 29-(Rac)] | human Nav1.7 (Homo sapiens, UniProt Q15858) | 6.91
COc1cc(-c2cccc(OC(F)F)c2)c(F)cc1-n1c2c(ccc1=O)CN(S(=O)(=O)Nc1ccon1)CC2 (racemic) [Example 19-(Rac)] | human Nav1.7 (Homo sapiens, UniProt Q15858) | 7.81
COc1cc(-c2cccc(C(F)(F)F)c2)c(F)cc1-n1c2c(ccc1=O)CN(S(=O)(=O)Nc1ccon1)CC2 (single isomer, unassigned) [Example 16-M] | human Nav1.7 (Homo sapiens, UniProt Q15858) | 6.14
COc1cc(-c2cc(F)cc(Cl)c2)c(F)cc1-n1c2c(ccc1=O)CN(S(=O)(=O)Nc1ncns1)CC2 (single isomer, unassigned) [Example 5-M] | human Nav1.7 (Homo sapiens, UniProt Q15858) | 6.14

[I] COc1nc(-c2cc(F)cc(Cl)c2)c(F)cc1-n1c2c(ccc1=O)CN(S(=O)(=O)Nc1cccnn1)CC2 (racemic)
[II] COc1cc(-c2cc(F)cc(F)c2)c(F)cc1-n1c2c(ccc1=O)CN(S(=O)(=O)Nc1cccc(F)n1)CC2 (single isomer, unassigned) [Example 14-P]
[III] COc1cc(-c2cc(F)cc(Cl)c2)c(F)cc1-n1c2c(ccc1=O)CN(S(=O)(=O)Nc1cccc(F)n1)CC2 (single isomer, unassigned) [Example 13-P]
[IV] COc1cc(-c2cc(C)cc(OC(F)(F)F)c2)c(F)cc1-n1c2c(ccc1=O)CN(S(=O)(=O)Nc1cccnn1)CC2
Rank entries according to their pIC50, from the largest number down. A ranking is expressed here by listing the labels in the requested order.
IV, II, III, I

[a] COc1cc(-c2cc(F)cc(F)c2)c(F)cc1-n1c2c(ccc1=O)CN(S(=O)(=O)Nc1ncon1)CC2 (racemic) [Example 17-(Rac)]
[b] COc1cc(-c2ccc(F)c(C)c2)c(F)cc1-n1c2c(ccc1=O)CN(S(=O)(=O)Nc1cccnn1)CC2
# argmax over pIC50 for candidates a and b // caller expects the label of the chosen entry
b
